# experimental target: human recombinant adrenergic α2B receptor (Homo sapiens)
# Construct: expressed in transfected cells; host or cells: CHO-K1
# Sequence (P18089 whole entry): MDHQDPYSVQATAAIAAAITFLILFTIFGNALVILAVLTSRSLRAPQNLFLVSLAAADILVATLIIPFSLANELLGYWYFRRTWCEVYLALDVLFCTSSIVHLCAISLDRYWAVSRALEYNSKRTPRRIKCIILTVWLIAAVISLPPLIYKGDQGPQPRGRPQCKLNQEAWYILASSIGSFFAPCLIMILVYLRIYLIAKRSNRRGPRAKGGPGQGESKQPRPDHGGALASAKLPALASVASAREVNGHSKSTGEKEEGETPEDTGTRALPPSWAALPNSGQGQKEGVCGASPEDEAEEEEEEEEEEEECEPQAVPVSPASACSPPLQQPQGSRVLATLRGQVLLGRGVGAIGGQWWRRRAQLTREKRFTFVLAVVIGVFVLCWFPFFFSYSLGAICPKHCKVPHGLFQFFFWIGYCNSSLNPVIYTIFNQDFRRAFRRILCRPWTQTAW
# method notes: Radioligand binding, adrenergic α2B ([3H]Rauwolscine)
# conditions used: compound at 0.03 μM; [3H]Rauwolscine; repeat datapoints each shown; 0.03 µM
This section presents molecules with their documented Percentage inhibition of ligand binding, Adrenergic α2B (0.03 μM) values.
Respond with the bare value in %.

{"molecule": "Cc1ccc2c(c1)c1c(n2CC(N)c2ccncc2)CCN(C)CC1 (single isomer, unassigned) [154b]", "experimental target": "human recombinant adrenergic α2B receptor (Homo sapiens)", "readout number": 83}
{"molecule": "Cc1ccc2c(c1)c1c(n2CC(C)(O)c2cccnc2)CCN(C)C1C (single isomer, unassigned) [II-152a]", "experimental target": "human recombinant adrenergic α2B receptor (Homo sapiens)", "readout number": 93}
{"molecule": "Cc1ccc2c(c1)c1c(n2CC(C)(O)c2ccc(C)nc2)CN(C)CC1 (single isomer, unassigned) [196a]", "experimental target": "human recombinant adrenergic α2B receptor (Homo sapiens)", "readout number": 103}
{"molecule": "Cc1ccc2c(c1)c1c(n2CC(C)(O)c2cccnc2)CNCC1 (single isomer, unassigned) [128a]", "experimental target": "human recombinant adrenergic α2B receptor (Homo sapiens)", "readout number": 100}
{"molecule": "Cc1ccc2c(c1)c1c(n2CC(C)(O)c2cccnc2)CCN(C)C1C (single isomer, unassigned) [II-152c]", "experimental target": "human recombinant adrenergic α2B receptor (Homo sapiens)", "readout number": 14}

So, Cc1ccc2c(c1)c1c(n2CC(C)(O)c2cccnc2)CC(C)N(C)C1 (single isomer, unassigned) [II-146b] ? Its Percentage inhibition of ligand binding, Adrenergic α2B (0.03 μM) was 43

The reported Percentage inhibition of ligand binding, Adrenergic α2B (0.03 μM) of the molecule Cc1ccc2c(c1)c1c(n2CC(O)c2ccc(C)nc2)CCN2CCCC12 (single isomer, unassigned) [198a] was 47

Record CC(O)(Cn1c2c(c3cc(Cl)ccc31)CN(C1CCC1)CC2)c1cccnc1 (single isomer, unassigned) [II-118a] . Reported Percentage inhibition of ligand binding, Adrenergic α2B (0.03 μM): 27

Form: molecule = CC(O)(Cn1c2c(c3cc(Cl)cnc31)C1CCCN1CC2)c1cccnc1 (single isomer, unassigned) [IV-210b] ; Percentage inhibition of ligand binding, Adrenergic α2B (0.03 μM) = 29

Sure, the documented Percentage inhibition of ligand binding, Adrenergic α2B (0.03 μM) for Cc1cnc2c(c1)c1c(n2CC(C)(O)c2ccc(C(F)(F)F)nc2)CCN(C)C1 (single isomer, unassigned) [II-108b] is 11

What the record says about Cc1ccc2c(c1)c1c(n2CC(O)c2cc[nH]c(=O)c2)CCN2CCCC12 (single isomer, unassigned) [II-132b] : Percentage inhibition of ligand binding, Adrenergic α2B (0.03 μM) is 70

// Cc1ccc2c(c1)c1c(n2CC(C)(O)c2cccnc2)C(c2ccccc2)N(C)CC1 (stereo not shown) [II-112b] : Percentage inhibition of ligand binding, Adrenergic α2B (0.03 μM) value = 31

Documented Percentage inhibition of ligand binding, Adrenergic α2B (0.03 μM) of C/C(=C\n1c2c(c3cc(C)ccc31)CN(C)CC2)c1ccc(C)nc1 [compound 186] : 97

Measured values drawn from patent US8791132B2 for this set.
